STATED_CONDITIONS: Table 1
ASSAY_ENDPOINT: pH
Numbers only.

These recorded examples may help you get a feel for the data.
> print(dat)
                                   compound  recorded.result
1                             CCCCN(CCO)CCO             12.7
2  CCCCCCCCCCCC(=O)N(C)CC(=O)[O-].[Na+] [#1466, Sodium N- lauroylsarcosinate]              6.1

Hi! Can you tell me pH for each of these compounds?
1. Cc1ccnc(C)c1
2. CCCCNCCN

1: 7.6; 2: 12.7

---

STATED_CONDITIONS: Table 1
ASSAY_ENDPOINT: pH

Examples with answers:
COMPOUND	pH
CCCCCCCCCC(=O)N(C)CC(=O)[O-].[Na+] [#0703, N-Decanoylsarcosine sodium salt]	7.0
C[C@H](CCC(=O)[O-])[C@H]1CC[C@H]2[C@@H]3CC[C@@H]4C[C@H](O)CC[C@]4(C)[C@H]3C[C@H](O)[C@]12C.[Na+] [#1507, Sodium deoxycholate]	7.9
CCCCC(O)CO (stereo not shown)	9.3
CN(C)C(=N)N(C)C	12.4

Fill in pH for each of the 6 compounds listed.
1. NCC1CCC(CN)CC1 (stereo not shown)
2. NCC1CCCC(CN)C1 (stereo not shown)
3. CC(=O)O.CCCCCCCCCCCCN [#0627, Dodecylamine acetate]
4. CC(C)NCCCN
5. CCCCCCCCCCCCOS(=O)(=O)[O-].[Na+] [#1035, Sodium dodecyl sulfate]
6. CN1CCCC1

[13.3, 13.0, 10.3, 13.4, 6.3, 10.5]

---

STATED_CONDITIONS: Table 1
ASSAY_ENDPOINT: OD400
Answers are plain numbers.

Reference set (8 entries):
> print(dat)
                                   compound  recorded.result
1  C[N+](C)(C)Cc1ccccc1.[OH-] [#0387, Benzyltrimethyl- ammonium Hydroxide]            0.054
2  CC(O)CN(CCN(CC(C)O)CC(C)O)CC(C)O (centres unmarked) [Quadrol ®, reference compound]            0.048
3  CCCCCCCCCS(=O)(=O)[O-].[Na+] [#0870, Sodium 1-nonanesulfonate]            0.047
4  CCCCCCCCCCCC[n+]1ccccc1.[Cl-] [#0635, 1-Dodecylpyridinium chloride]            0.053
5  CCCCCCCCCCCCOS(=O)(=O)[O-].[Na+] [#1035, Sodium dodecyl sulfate]            0.048
6  CC1(C)CC(N)CC(C)(CN)C1 (centres unmarked)            0.051
7                                  CN1CCCC1            0.085
8                                  CC(C)CCN            0.055

Batch lookup, OD400 per entry.
1. CCCCN(CCO)CCO
2. CCCCNCCN
3. CCCCCCCCCCCC(=O)N(C)CC(=O)[O-].[Na+] [#1466, Sodium N- lauroylsarcosinate]

[0.05, 0.05, 0.05]

---

STATED_CONDITIONS: Table 4
Hi there, I'd appreciate the recorded pH for every entry that follows.
Answers are plain numbers.

> print(dat)
                                    compound  recorded.result
 1           CCCCCCC(O)CO (stereo not drawn)             6.00
 2  O=C(O)[C@H](O)[C@@H](O)[C@H](O[C@@H]1O[C@H](CO)[C@H](O)[C@H](O)[C@H]1O)[C@H](O)CO             2.63
 3  Cl.NOCc1ccccc1 [#0429, O-Benzylhydroxylamine hydrochloride]             4.10
 4               O=C(O)CC(O)C(=O)O (racemic)             2.34
 5                               O=CNCC(=O)O             2.67
 6                           CC[n+]1ccccc1Br             3.92
 7                   CC(=O)N[C@@H](CS)C(=O)O             2.86
 8                  CSCC[C@H](NC(C)=O)C(=O)O             2.74
 9                 O=C(O)[C@@H](O)c1ccccc1Cl             2.14
10                    O=C(O)C(C(=O)O)C1CCCC1             2.74

The following compounds each have a reported value; give each one's pH.
1. CN(C)CCC(=O)O.Cl
2. F[N+]12CC[N+](CCl)(CC1)CC2

1: 2.17; 2: 5.19
